Below, each of the compounds is paired with its reported composite z-score value.
TEST DETAILS: small-molecule binders of probe aInhba, primary screen, biochemical, small-molecule microarray, 635/667 nm fluorescence (AID 1148);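 further: score merges 667nm spot fluorescence with signal-to-noise for antibody binding to printed compounds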
EXPERIMENTAL CONTEXT: higher = more signal

INSERT INTO measurements (compound, assay_result) VALUES
  ('COCCOC(=O)N1C(=O)[C@@]2(c3cc(C#Cc4ccc(OC)cc4)ccc31)[C@H](c1ccc(OCCO)cc1)N1[C@H](c3ccccc3)[C@H](c3ccccc3)OC(=O)[C@H]1[C@@H]2C(=O)N1CCCCCCC1', 1.65),
  ('CN(C)CCCCNC(=O)[C@H]1C[C@H]2C(=O)NCC(=O)N2[C@H]1c1cccc(OCCO)c1', -0.202),
  ('CN(C)CCCC[C@@H]1NC(=O)[C@H]2C[C@@H](C(=O)NCc3ccc(F)cc3)[C@@H](c3ccc(O)cc3)N2C1=O', 0.0676),
  ('O=C1C2C=CC(C(O)c3cccs3)N(Nc3ccccc3)C2C(=O)N1c1ccccc1 (stereo not drawn)', -0.0604),
  ('C#CCN=C(N)N', 0.0797);

*Q* Could you share which composite z-score value was measured for O=C1c2ccccc2[C@@]2(Cc3ccccc3N(Cc3ccccc3)C2=O)[C@H](c2ccc(CO)cc2)N1Cc1ccccc1 ?
*A* -0.176

*Q* Next: COc1ccc([Si](C)(C)[C@H]2[C@H](CCO)O[C@@]3(C(=O)N(Cc4ccccc4)c4ccc(N(C=O)c5ccccc5)cc43)[C@@H]2C)cc1
*A* 0.122

*Q* Next: COc1ccccc1CN1C(=O)c2ccccc2[C@](Cc2ccccc2I)(C(=O)NCCCN(C)C)[C@@H]1c1ccc(CO)cc1
*A* -0.187

---

Below, each of the compounds is paired with its reported composite z-score value.
System: Sonic hedgehog protein (Shh)
TEST DETAILS: small-molecule binders of Shh protein, primary screen, biochemical, small-molecule microarray, 635/667 nm fluorescence (AID 1151);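 further: Shh protein binding to compounds spotted on small-molecule microarray slides; score combines spot fluorescence intensity with signal-to-noise across triplicate slides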
EXPERIMENTAL CONTEXT: small-molecule microarray binding, 635 nm fluorescence; higher = more signal
Respond with the number and no other words.

*Q* Could you share which composite z-score value was measured for NC(=O)N1C(=O)C2C(C1=O)C1C=C(CCCO)C2C(c2ccc(CN3CCCC3)cc2)N1Cc1cccc(OC(F)(F)F)c1 (configuration not stated) ?
*A* 1.86

*Q* Next: COCCCNC(=O)[C@@H]1c2ccccc2C(=O)N(Cc2cc(C(F)(F)F)cc(C(F)(F)F)c2)[C@H]1c1ccc(CO)cc1
*A* 0.395

*Q* Next: COCCOC(=O)N1C(=O)[C@@]2(c3cc(C#CC4=CCCCC4)ccc31)[C@H](C(=O)N1CCN(c3ncccn3)CC1)[C@H]1C(=O)O[C@H](c3ccccc3)[C@H](c3ccccc3)N1[C@@H]2c1ccccc1OCCO
*A* 1.47

*Q* Next: CC(C)CNC(=O)[C@@H]1c2ccccc2C(=O)N(Cc2ccccc2)[C@H]1c1ccc(CO)cc1
*A* -0.693

*Q* Next: CN(C)C(=O)[C@]1(Cc2ccccc2)N=C(c2ccc(OCCCO)cc2)O[C@@H]1c1ccccc1
*A* -0.46

*Q* Next: CCCCN1CC=CC23O[C@@H]4/C=C\CCC(C)OC(=O)C4[C@H]2C(=O)N(C(C)CO)[C@@H]3C1=O (some centres not stated)
*A* -0.0387

*Q* Next: CN(C)CCCCNC(=O)[C@H]1C[C@H]2C(=O)NCC(=O)N2[C@H]1c1cccc(OCCO)c1
*A* 2.19
